- System name: T1, Beta2-glycoprotein I (β2GPI), full-length, human (human, UniProt P02749 20-345)
- T1 construct: mature; Two preparations of the same native protein were used, serum and purified from plasma; the assay field of each row says which; Where anti-β2GPI antibodies (Cedarlane CL20021HP, peroxidase-conjugated) were present, β2GPI stood as dimeric β2GPI/antibody complexes; also called B2GPI; β2GPI in normal human serum
- T1 sequence (looked up): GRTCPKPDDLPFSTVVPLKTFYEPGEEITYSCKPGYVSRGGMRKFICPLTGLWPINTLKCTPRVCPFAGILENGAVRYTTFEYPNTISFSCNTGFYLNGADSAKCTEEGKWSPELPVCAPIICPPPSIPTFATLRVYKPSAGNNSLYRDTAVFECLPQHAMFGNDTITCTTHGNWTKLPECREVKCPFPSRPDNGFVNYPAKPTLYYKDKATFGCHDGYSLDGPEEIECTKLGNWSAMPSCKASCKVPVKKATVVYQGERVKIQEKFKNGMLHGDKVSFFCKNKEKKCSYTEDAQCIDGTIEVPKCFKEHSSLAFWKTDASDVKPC
- Test details: inhibition of binding of β2GPI in 0.04% human serum to a cardiolipin-coated plate, with anti-β2GPI antibodies present (β2GPI/antibody complexes); OD405, one-site fit
Quantity kind: pIC50
Please note pIC50 is a logarithmic value: minus log10 of concentration in mol/L. Answer with that number alone.

Find the recorded pIC50 belonging to dimeric inhibitor A1-A1 (two A1 ligand-binding LA modules of ApoER2 connected by a Gly-Ser-Ser-Gly linker) (designed binder) AECEEDQFRCRNERCIPLVWRCDEDNDCSDNSDEDDCGSSGCEEDQFRCRNERCIPLVWRCDEDNDCSDNSDEDDCEA and report it. 5.00

Reference for the values: patent US20130252887A1
